Provenance of the data: paper PMC7060200

target: HSC70 (Homo sapiens); construct: made in house; assay: Competition ELISA: soluble peptide vs HSC70 binding to immobilized 1097-L; settings: 1 μM HSC70, 100 μM soluble peptide, Fig. 3c/5; cutoff twice SD of 733-L; n ≥ 4
Sequence (P11142 whole entry): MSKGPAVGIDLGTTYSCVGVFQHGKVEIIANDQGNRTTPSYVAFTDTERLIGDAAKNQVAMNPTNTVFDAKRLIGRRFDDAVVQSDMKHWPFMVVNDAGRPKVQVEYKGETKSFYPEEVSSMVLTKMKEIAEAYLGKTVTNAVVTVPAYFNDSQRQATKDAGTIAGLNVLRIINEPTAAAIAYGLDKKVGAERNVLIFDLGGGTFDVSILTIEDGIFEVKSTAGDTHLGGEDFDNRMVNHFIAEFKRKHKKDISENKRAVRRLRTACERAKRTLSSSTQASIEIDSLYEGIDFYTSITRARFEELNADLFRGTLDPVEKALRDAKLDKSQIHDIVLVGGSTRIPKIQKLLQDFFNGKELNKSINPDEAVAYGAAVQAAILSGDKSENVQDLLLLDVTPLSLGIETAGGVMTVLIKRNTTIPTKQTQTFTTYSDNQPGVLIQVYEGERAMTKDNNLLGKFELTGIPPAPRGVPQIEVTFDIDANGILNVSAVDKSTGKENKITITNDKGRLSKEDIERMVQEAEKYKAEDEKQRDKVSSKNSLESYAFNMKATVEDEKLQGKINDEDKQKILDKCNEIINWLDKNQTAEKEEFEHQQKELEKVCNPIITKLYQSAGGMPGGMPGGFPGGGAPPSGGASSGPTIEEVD
Ends that are not written are not given here.
Quantity Name: HSC70 binding site by competition screen (in words)

QKVFIFSGTF [Peptide 1295-S] = HSC70-DJA2 sites
HRIEAMLEC [Peptide 1406-S, NBD2 9-mer] = HSC70 site
TSLLMVIMG [Peptide 469-S] = HSC70-DJA2 sites
ILCEHRIEA [Peptide 1402-S, NBD2 9-mer] = HSC70 site

----------
target: DJA1 (Homo sapiens); construct: made in house; assay: Fluorescent peptide binding, DJA1; conditions: 0.5 μM FAM-1092-S, buffer H, 45 min, ex 492 nm / em 520 nm, one site total binding fit; n ≥ 8; read-out: Kd from fluorescence binding, DJA1
Sequence (P31689 whole entry): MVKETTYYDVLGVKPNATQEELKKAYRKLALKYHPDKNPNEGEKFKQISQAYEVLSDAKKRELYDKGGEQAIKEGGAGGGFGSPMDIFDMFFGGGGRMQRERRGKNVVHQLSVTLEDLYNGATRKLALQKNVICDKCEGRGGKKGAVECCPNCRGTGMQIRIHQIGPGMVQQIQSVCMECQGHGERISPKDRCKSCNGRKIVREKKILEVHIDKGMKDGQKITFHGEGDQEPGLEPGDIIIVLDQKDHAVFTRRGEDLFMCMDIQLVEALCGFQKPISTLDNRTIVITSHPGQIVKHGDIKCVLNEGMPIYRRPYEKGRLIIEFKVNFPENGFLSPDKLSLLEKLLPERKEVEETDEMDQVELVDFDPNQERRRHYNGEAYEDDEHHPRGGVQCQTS
Ends that are not written are not given here.
Quantity Name: Kd

NWFLYLSTL [Peptide 1092-S] = 3.97 µM

----------
target: DJA2 (Homo sapiens); construct: made in house; assay: Competition ELISA: soluble peptide vs DJA2 binding to immobilized 1097-L; conditions: 1 μM DJA2, soluble peptide up to 100 μM
Sequence (O60884 whole entry): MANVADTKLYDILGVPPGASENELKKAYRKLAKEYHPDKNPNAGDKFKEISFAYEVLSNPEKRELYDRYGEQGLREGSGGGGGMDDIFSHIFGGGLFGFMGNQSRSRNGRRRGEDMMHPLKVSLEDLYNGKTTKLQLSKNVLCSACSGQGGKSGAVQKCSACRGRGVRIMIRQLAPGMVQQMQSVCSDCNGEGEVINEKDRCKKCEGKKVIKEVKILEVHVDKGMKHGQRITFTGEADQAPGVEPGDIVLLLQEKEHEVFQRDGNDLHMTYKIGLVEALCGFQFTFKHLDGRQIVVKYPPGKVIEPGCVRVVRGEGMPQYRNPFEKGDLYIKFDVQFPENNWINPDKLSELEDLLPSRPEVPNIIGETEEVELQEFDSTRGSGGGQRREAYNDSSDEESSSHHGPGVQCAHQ
Ends that are not written are not given here.
Quantity Name: competition of DJA2 binding to immobilized 1097-L (in words)

493-L: NBD1 15-mer 486-500 (GRISFCSQFSWIMPG; UniProt P13569 486-500, looked up, fragment) [Peptide 493-L] = competed poorly
488-L: NBD1 15-mer 481-495 (KIKHSGRISFCSQFS; UniProt P13569 481-495, looked up, fragment) [Peptide 488-L] = competed poorly
TSLLMVIMG [Peptide 469-S] = competed
LRWFQMRIE [Peptide 1100-S] = competed

----------
test system: HSC70 and DJA2; experiment: Refolding of guanidine denatured luciferase by HSC70 and DJA2; type: biochemical; conditions: 4 μM each HSC70 and DJA2, 100 nM luciferase, 100 μM peptide (25-fold excess), 60 min, % of control without peptide; n = 3
Ends that are not written are not given here.
Quantity Name: effect on luciferase refolding (in words)

NWFLYLSTL [Peptide 1092-S] = inhibited refolding
TSLLMVIMG [Peptide 469-S] = inhibited refolding

----------
molecular target: HSC70 (Homo sapiens); construct: made in house; test: Fluorescent peptide binding, HSC70; settings: 0.5 μM FAM-1092-S, buffer G, 45 min, ex 492 nm / em 520 nm, one site total binding fit; n ≥ 8; read-out: Kd from fluorescence binding, HSC70
pKd: −log10 of the molar value. Ends that are not written are not given here.
Quantity Name: pKd

NWFLYLSTL [Peptide 1092-S] = 5.21

----------
Collected Kd values appear next to each entry.
target: DJA1 (Homo sapiens); construct: made in house; assay: Competition ELISA: soluble peptide vs DJA1 binding to immobilized 1097-L; details: read-out: Kd from competition curves, DJA1
Ends that are not written are not given here.
Quantity Name: Kd

NWFLYLSTL [Peptide 1092-S] = 5.47 µM
FLYLSTLRWFQMRIE [Peptide 1097-L] = 2.43 µM

----------
molecular target: HSC70 (Homo sapiens); construct: made in house; test: ELISA binding of HSC70 to immobilized CFTR NBD1 and competition by soluble peptides; settings: 1 μM HSC70, with ATP, soluble peptide, Fig. 4a; n = 5
Ends that are not written are not given here.
Quantity Name: competition of HSC70 binding to immobilized NBD1 (in words)

NWFLYLSTL [Peptide 1092-S] = effective competitors
QKVFIFSGTF [Peptide 1295-S] = effective competitors
